Where do these numbers come from? They come from patent US6696482B2.

Item-by-item account of melting point
readoutName: melting point

compound="COc1ccc(Oc2cccc3ncnc(N)c23)cc1 [Procedure C 1, 4-Amino-5-(4-methoxyphenoxy)quinazoline]" readoutname="melting point" result="192 to 195 °C"
compound="Nc1nc(N)c2c(-n3cccc3)cccc2n1 [Procedure D 4, 2,4-Diamino-5-(pyrrol-1-yl)quinazoline]" readoutname="melting point" result="248 to 250 °C"
compound="CN(C)c1cccc(Oc2cccc3nc(N)nc(N)c23)c1 [Procedure B 3]" readoutname="melting point" result="224 to 225 °C (dec.)"
compound="Nc1ncnc2cccc(Oc3ccc(F)cc3)c12 [Similar synthetic processes 1, 4-Amino-5-(4-fluorophenoxy)quinazoline]" readoutname="melting point" result="188 to 190 °C"
compound="CC(C)(C)c1ccc(Oc2cccc3nc(N)nc(N)c23)cc1 [Procedure B 1]" readoutname="melting point" result="226 to 228 °C"
compound="COc1ccccc1Oc1cccc2nc(N)nc(N)c12 [Procedure B 6]" readoutname="melting point" result="208 to 209 °C (dec.)"
compound="Nc1nc(N)c2c(Oc3ccc(OCc4ccccc4)cc3)cccc2n1 [Procedure B 8]" readoutname="melting point" result="175 to 177 °C"
compound="CN(C)CCCOc1cccc2nc(N)nc(N)c12 [Procedure B 9]" readoutname="melting point" result="193 to 195 °C"
compound="Nc1nc(N)c2c(Oc3cccc(Br)c3)cccc2n1 [Procedure B 5]" readoutname="melting point" result="292 to 295 °C"
compound="Nc1nc(N)c2c(Oc3ccccc3F)cccc2n1 [Procedure B 4]" readoutname="melting point" result="301 to 303 °C"
compound="Nc1ncnc2cccc(Oc3cccnc3)c12 [Procedure C 3, 4-Amino-5-(3-pyridinoxy)quinazoline]" readoutname="melting point" result="245 to 247 °C"
compound="Nc1ncnc2cccc(Oc3ccc4c(c3)OCO4)c12 [Procedure C 5]" readoutname="melting point" result="201 to 203 °C"
compound="CN(C)c1cccc(Oc2cccc3ncnc(N)c23)c1 [Procedure C 2]" readoutname="melting point" result="179 to 181 °C"
compound="Nc1ncnc2cccc(Oc3ccc(OCc4ccccc4)cc3)c12 [Procedure C 4]" readoutname="melting point" result="170 to 171 °C"
compound="COc1ccc(Oc2cccc3nc(N)nc(N)c23)cc1OC [Procedure B 2]" readoutname="melting point" result="301 to 302 °C"

---

assay: Solubility of the indolinone-based compound in water and excipients; format: physicochemical; settings: polyglycolized lipids like LABPASOL and GELUCIRE, oil or lipid; read-out: solubility in polyglycolized lipids
readoutName: solubility

testsmiles=Cc1cc(C)c(C=C2C(=O)Nc3ccccc32)[nH]1 result="25 to 30 mg/mL"

---

experiment: Solubility of the indolinone-based compound in water and excipients; format: physicochemical; conditions: polyethylene glycols of 300 and 400 MW, organic solvent or mixture; read-out: solubility in polar excipients
readoutName: solubility

testsmiles=Cc1cc(C)c(C=C2C(=O)Nc3ccccc32)[nH]1 result="15 to 20 mg/mL"

---

experiment: Solubility of the indolinone-based compound in water and excipients; type: physicochemical; settings: aromatic solvents like benzyl alcohol, organic solvent or mixture; read-out: solubility in aromatic solvents
readoutName: solubility

testsmiles=Cc1cc(C)c(C=C2C(=O)Nc3ccccc32)[nH]1 readoutname=solubility result="10 to 15 mg/mL"
